Target: recombinant human GST-SYK (Homo sapiens)
Assay: Homogeneous Time-Resolved Fluorescence (HTRF) assay for the recombinant human SYK enzyme
Settings: recombinant human GST-SYK 5 pM, ATP 25 μM, 10-dose titration; read-out: rhSYK Activity (IC50)
Test Readout: IC50

Reference set, count: 3
OC1CCCN(c2ncc(-c3cccc(Nc4nccc(C(F)(F)F)n4)c3)s2)C1 (stereo not drawn)	≤ 100 nM
C[C@@H](Nc1ncc(-c2cccc(Nc3nccc(C(F)(F)F)n3)c2)s1)C1CCCCC1	1000 to 10000 nM
Cc1cc(Nc2nccc(C(F)(F)F)n2)cc(-c2cnc(NCc3cnn(C)c3)s2)c1	≤ 100 nM

Enquiry: # lookup: IC50 of FC(F)(F)c1ccnc(Nc2cccc(-c3cnc(NCCc4cccs4)s3)c2)n1
Return: 100 to 1000 nM

Enquiry: # lookup: IC50 of FC(F)(F)c1ccnc(Nc2cccc(-c3cnc(-n4ccnc4)s3)c2)n1
Return: ≤ 100 nM

Enquiry: # lookup: IC50 of COc1ccc(CCNc2ncc(-c3cccc(Nc4nccc(C(F)(F)F)n4)c3)s2)cc1
Return: 100 to 1000 nM

Enquiry: # lookup: IC50 of CCC(CO)Nc1ncc(-c2cc(C)cc(Nc3nccc(C(F)(F)F)n3)c2)s1 (stereo not drawn)
Return: ≤ 100 nM

Enquiry: # lookup: IC50 of CSc1ccnc(Nc2cc(C)cc(-c3cnc(N4CCCNC(=O)C4)s3)c2)n1
Return: ≤ 100 nM

Enquiry: # lookup: IC50 of CCCN(CCO)c1ncc(-c2cccc(Nc3nccc(C(F)(F)F)n3)c2)s1
Return: ≤ 100 nM

Enquiry: # lookup: IC50 of Cc1cc(Nc2nccc(C(F)(F)F)n2)cc(-c2cnc(NCc3cn4ccccc4n3)s2)c1
Return: 100 to 1000 nM

Enquiry: # lookup: IC50 of O[C@@H]1CN(c2ncc(-c3cccc(Nc4nccc(C(F)(F)F)n4)c3)s2)C[C@@H]1O
Return: ≤ 100 nM

Enquiry: # lookup: IC50 of Cc1cc(Nc2nccc(C(F)(F)F)n2)cc(-c2cnc(N(C)Cc3nc4ccccc4o3)s2)c1
Return: 100 to 1000 nM

Enquiry: # lookup: IC50 of OCC1C2CN(c3ncc(-c4cccc(Nc5nccc(C(F)(F)F)n5)c4)s3)CC12 (stereo not drawn)
Return: ≤ 100 nM

Enquiry: # lookup: IC50 of Cc1cc(Nc2nccc(C(F)(F)F)n2)cc(-c2cnc(N3CCOCC3)s2)c1
Return: ≤ 100 nM
